# measurement target: human cathepsin K (Homo sapiens, UniProt P43235)
# Construct: The proform of cathepsin K was converted to mature cathepsin K by brief exposure to pH 4; made in house; host or cells: baculovirus; Trichoplusia ni High Five cells (virus raised in Sf-9)
# Sequence (P43235 115-329): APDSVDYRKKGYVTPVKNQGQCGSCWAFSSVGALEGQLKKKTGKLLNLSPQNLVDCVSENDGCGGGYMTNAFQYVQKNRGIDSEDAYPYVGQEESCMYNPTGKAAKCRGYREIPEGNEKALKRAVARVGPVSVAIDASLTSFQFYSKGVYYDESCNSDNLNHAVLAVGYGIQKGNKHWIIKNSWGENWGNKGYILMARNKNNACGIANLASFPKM
# assay text: Cathepsin K inhibition, fluorogenic substrate Cbz-Phe-Arg-AMC, progress curve method
# Assay type: biochemical
# measurement conditions: Table 1, Inhibition of Cathepsin K (Ki in nM); recombinant human enzyme, 10 μM substrate, pH 5.5, 30° C.; read-out: hCat K IC50
measured endpoint: IC50

INSERT INTO assay_data (structure, result) VALUES
  ('CC(C)(C)[C@@H](Cn1cnc2cc(Cl)c(Cl)cc21)OC(=O)NCC(=O)CNS(=O)(=O)c1ccccn1', '< 10 nM'),
  ('CCCC[C@H](NC(=O)O[C@@H]1CN(c2nc3ccccc3s2)CC1(C)C)C(=O)CNS(=O)(=O)c1ccccn1', '100 to 1000 nM'),
  ('CCCC[C@H](NC(=O)O[C@H](Cn1ccc(-c2ccc(C(F)(F)F)cc2)n1)C(C)(C)C)C(=O)CNS(=O)(=O)c1ccccn1', '10 to 100 nM'),
  ('CCCC[C@H](NC(=O)O[C@H](Cn1cnc(-c2ccc(C(F)(F)F)cc2)c1)C(C)(C)C)C(=O)CNS(=O)(=O)c1ccccn1', '< 10 nM'),
  ('CCCC[C@H](NC(=O)O[C@H](c1nc2cc(C(F)(F)F)ccc2s1)C(C)(C)C)C(=O)CNS(=O)(=O)c1ccccn1', '10 to 100 nM'),
  ('CCCC[C@H](NC(=O)O[C@H](Cn1nccc1-c1ccc(C(F)(F)F)cc1)C(C)(C)C)C(=O)CNS(=O)(=O)c1ccccn1', '10 to 100 nM');
